system: cell lines irrespective of HER2 expression; assay: Alamar blue cell viability, cell lines irrespective of HER2 expression; format: cell-based, human; conditions: fairly consistent across cell lines irrespective of HER2 expression; 72–96 h
assay_endpoint: IC50

// query // map `COc1cc2cc(c1Cl)N(C)C(=O)C[C@H](OC(=O)[C@H](C)N(C)C(=O)CCS)[C@]1(C)O[C@H]1[C@H](C)[C@@H]1C[C@@](O)(NC(=O)O1)[C@H](OC)/C=C/C=C(\C)C2` to recorded IC50 (system: cell lines irrespective of HER2 expression)
// result ~10 nM
